Reported pIC50 is given for each of the following molecules.
Test system: MDA-MB-231 human breast cancer cells
Assay: Cell proliferation assay (CellTiter-Glo, 72 hours treatment)
Type: cell-based
Details: Homo sapiens; MDA-MB-231 cells, 72 hours at 37° C., CellTiter-Glo; read-out: MDA-MB-231 cell proliferation assay (IC50)
pIC50: −log10 of the molar value.

- molecule: "CN(C)C(=O)[C@H]1[C@@H](O)[C@@]2(O)c3nn(C)c(Cl)c3O[C@@]2(c2ccc(Br)cc2)[C@@H]1c1ccccc1 (racemic) [37F]"
  pIC50: "< 6.00"
- molecule: "COc1cncc2c1[C@]1(O)[C@H](O)[C@H](CNCC(F)F)[C@@H](c3ccccc3)[C@]1(c1ccc(C(F)(F)F)cc1)O2 (single isomer, unassigned) [286F]"
  pIC50: "6.00 to 7.00"
- molecule: "COc1cncc2c1[C@]1(O)[C@@H](CNCc3ccncc3)[C@H](CO)[C@@H](c3ccccc3)[C@]1(c1ccc(C#N)cc1)O2 (racemic) [188F]"
  pIC50: "> 7.00"
- molecule: "COc1cncc2c1[C@]1(O)[C@H](O)[C@H](C(=O)NC3CC3)[C@@H](c3ccccc3)[C@]1(c1ccc(Br)cc1)O2 (racemic) [89F]"
  pIC50: "> 7.00"
- molecule: "C[C@H]1[C@@H](O)[C@@]2(O)c3ncc(Cl)cc3O[C@@]2(c2ccc(Br)cc2)[C@@H]1c1ccccc1 (racemic) [57F]"
  pIC50: "< 6.00"
- molecule: "COc1cncc2c1[C@]1(O)[C@H](O)[C@H](CN(C)C)[C@@H](c3ccccc3)[C@]1(c1ccc(C(F)F)cc1)O2 (single isomer, unassigned) [106F]"
  pIC50: "6.00 to 7.00"

----------
Test system: MDA-MB-231 human breast cancer cells
Assay: Cell proliferation assay (CellTiter-Glo, 72 hours treatment)
Format: cell-based
Settings: Homo sapiens; MDA-MB-231 cells, 72 hours at 37° C., CellTiter-Glo; read-out: MDA-MB-231 cell proliferation assay (IC50)

- molecule: "N#Cc1ccc([C@@]23Oc4cc(Cl)cnc4[C@]2(O)[C@H](O)[C@H](C(N)=O)[C@H]3c2ccccc2)cc1 (single isomer, unassigned) [18F]"
  IC50: "< 0.1 µM"
- molecule: "COc1cncc2c1[C@]1(O)[C@H](O)[C@H](CN(C)Cc3ccnn3C)[C@@H](c3ccccc3)[C@]1(c1ccc(C#N)cc1)O2 (single isomer, unassigned) [250F]"
  IC50: "> 1 µM"
- molecule: "N#Cc1ccc([C@@]23Oc4cc(Cl)cnc4[C@]2(O)[C@@H](CN2CCOCC2)C[C@H]3c2ccccc2)cc1 (racemic) [178F]"
  IC50: "< 0.1 µM"
- molecule: "COc1nc(Cl)cc2c1[C@]1(O)[C@H](O)[C@H](CN3CCC(F)(F)CC3)[C@@H](c3ccccc3)[C@]1(c1ccc(C#N)cc1)O2 (racemic) [157Fb]"
  IC50: "0.1 to 1 µM"
- molecule: "COc1cncc2c1[C@]1(O)[C@H](O)[C@H](C(=O)NCC(F)F)[C@@H](c3ccccc3)[C@]1(c1ccc(C(F)(F)F)cc1)O2 (racemic) [285F]"
  IC50: "0.1 to 1 µM"
- molecule: "COc1nc(Cl)cc2c1[C@]1(O)[C@H](O)[C@H](CN3CCCC3)[C@@H](c3ccccc3)[C@]1(c1ccc(C#N)cc1)O2 (racemic) [158Fb]"
  IC50: "< 0.1 µM"
- molecule: "CN(C)C(=O)[C@H]1C(=O)[C@@]2(O)c3ncc(Cl)cc3O[C@@]2(c2ccc(C#N)cc2)[C@@H]1c1ccccc1 (racemic) [32F]"
  IC50: "> 1 µM"
- molecule: "COc1cncc2c1[C@]1(O)[C@H](O)[C@H](C(=O)NCC(F)(F)F)[C@@H](c3ccccc3)[C@]1(c1ccc(Br)cc1)O2 (racemic) [90F]"
  IC50: "< 0.1 µM"
- molecule: "CN(C)C(=O)[C@H]1[C@@H](O)[C@@]2(O)c3ncc(Cl)cc3O[C@@]2(c2ccc(C(F)F)cc2)[C@@H]1c1ccccc1 (single isomer, unassigned) [16F]"
  IC50: "0.1 to 1 µM"
- molecule: "COc1ccc([C@@]23Oc4cc(C#N)cnc4[C@]2(O)[C@H](O)[C@H](C(=O)N(C)C)[C@H]3c2ccccc2)cc1 (single isomer, unassigned)"
  IC50: "0.1 to 1 µM"
- molecule: "N#C[C@H]1[C@@H](O)[C@@]2(O)c3ncc(Cl)cc3O[C@@]2(c2ccc(Br)cc2)[C@@H]1c1ccccc1 (racemic) [27F]"
  IC50: "0.1 to 1 µM"
- molecule: "COC(=O)[C@H]1[C@@H](O)[C@@]2(F)c3ncc(Cl)cc3O[C@@]2(c2ccc(Br)cc2)[C@@H]1c1ccccc1 (racemic) [43F]"
  IC50: "> 1 µM"
